Taken from patent EP4671246A1.

Assignment: determine reported pIC50 for the given compounds.
Target: NLRP3 inflammasome (Homo sapiens, UniProt Q96P20)
Sequence (Q96P20 whole entry): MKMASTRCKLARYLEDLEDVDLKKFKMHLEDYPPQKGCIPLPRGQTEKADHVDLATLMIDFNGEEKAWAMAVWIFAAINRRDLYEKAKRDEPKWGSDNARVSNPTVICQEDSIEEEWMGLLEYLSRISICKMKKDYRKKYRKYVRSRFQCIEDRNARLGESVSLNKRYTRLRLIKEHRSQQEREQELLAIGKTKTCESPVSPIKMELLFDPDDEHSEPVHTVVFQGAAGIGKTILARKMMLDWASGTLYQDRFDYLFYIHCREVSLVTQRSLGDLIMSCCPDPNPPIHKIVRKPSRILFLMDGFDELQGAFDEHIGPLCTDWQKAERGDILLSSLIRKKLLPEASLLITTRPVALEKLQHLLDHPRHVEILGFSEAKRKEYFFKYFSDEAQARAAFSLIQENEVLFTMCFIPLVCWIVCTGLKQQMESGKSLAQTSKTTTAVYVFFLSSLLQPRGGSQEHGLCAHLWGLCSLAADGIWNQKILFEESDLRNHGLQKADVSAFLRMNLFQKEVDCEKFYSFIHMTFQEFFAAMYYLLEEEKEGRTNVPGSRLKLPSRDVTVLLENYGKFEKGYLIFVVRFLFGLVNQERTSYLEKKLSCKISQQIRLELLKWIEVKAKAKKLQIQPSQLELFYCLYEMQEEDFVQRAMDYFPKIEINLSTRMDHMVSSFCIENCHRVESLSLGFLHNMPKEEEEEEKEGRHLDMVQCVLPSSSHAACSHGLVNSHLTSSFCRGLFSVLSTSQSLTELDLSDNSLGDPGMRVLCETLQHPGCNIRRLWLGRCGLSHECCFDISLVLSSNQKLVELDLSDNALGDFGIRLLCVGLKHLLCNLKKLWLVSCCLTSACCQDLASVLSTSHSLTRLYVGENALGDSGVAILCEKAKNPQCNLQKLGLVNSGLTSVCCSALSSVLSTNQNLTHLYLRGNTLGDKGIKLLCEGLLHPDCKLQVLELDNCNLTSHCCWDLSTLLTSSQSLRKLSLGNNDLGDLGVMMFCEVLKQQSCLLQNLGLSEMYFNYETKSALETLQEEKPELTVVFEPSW
Assay: Evaluation of NLRP3 inflammasome inhibitory activity (inhibition of IL-1β production in THP1-Null cells)
Settings: 0.5 µmol/L PMA overnight, 1 µg/mL Lipopolysaccharides 3 hours, Nigericin 7.5 µmol/L 1.5 hours, AlphaLISA Human IL-1β
One number for each entry, as −log10 of the molar value.

Completed entries (count: 2):
{"compound": "Cc1cc(Br)cc(C)c1-n1cc2c(=O)[nH]c(OC[C@@H]3CCOC3)nc2n1", "reported_measurement": 7.42}
{"compound": "COc1nc2nn(-c3c(C)cc(C4CC4)cc3C)c(I)c2c(=O)[nH]1", "reported_measurement": 8.10}

Provide pIC50 values for the following items, in order.
1. COc1cc(C)c(-n2cc3c(=O)[nH]c(OC)nc3n2)c(C)c1
2. Cc1cc(C)c(-n2cc3c(=O)[nH]c(OCc4ccccc4)nc3n2)c(C)c1

OUT:
1. 7.66
2. 7.14

Report pIC50 for every entry below.
1. COc1nc2nn(-c3c(C)cc(OC(F)(F)F)cc3C)cc2c(=O)[nH]1
2. COc1cc(C)c(-n2nc3nc(OC)[nH]c(=O)c3c2C2CC2)c(C)c1
3. COc1nc2nn(-c3ccc(Cl)cc3C)cc2c(=O)[nH]1
4. COc1nc2nn(-c3cc4c(cc3Cl)OCCC4)cc2c(=O)[nH]1
5. COCc1cc(OC(F)F)cc(C)c1-n1cc2c(=O)[nH]c(OC)nc2n1

OUT:
[7.16, 7.17, 7.30, 6.96, 6.68]

Field: pIC50. Fill in for each record below.
1. CCc1cc(Br)ccc1-n1cc2c(=O)[nH]c(OC)nc2n1
2. CCc1c2c(=O)[nH]c(OC)nc2nn1-c1c(C)cc(OC)cc1C
3. Cc1cc(C)c(-n2cc3c(=O)[nH]c(OC(C)C)nc3n2)c(C)c1
4. Cc1cc(Br)cc(C)c1-n1cc2c(=O)[nH]c(OC3CCC(S(C)(=O)=O)CC3)nc2n1 (stereo not shown)
5. Cc1cc(Br)cc(C)c1-n1cc2c(=O)[nH]c(OCCC3CCOCC3)nc2n1
6. COc1nc2nn(-c3c(C)cc(Br)c(OC)c3C)cc2c(=O)[nH]1
7. Cc1cc(C2CC2)cc(C)c1-n1cc2c(=O)[nH]c(OCCCS(C)(=O)=O)nc2n1
8. CCc1cc(C2CC2)ccc1-n1cc2c(=O)[nH]c(OC)nc2n1

OUT:
7.60
6.85
7.47
7.23
7.57
6.37
8.10
7.77

Each compound below has a reported value. Please supply its pIC50.
1. CCOc1cc(C)c(-n2cc3c(=O)[nH]c(OC)nc3n2)c(C)c1
2. Cc1cc(C)c(-n2cc3c(=O)[nH]c(OCC(F)(F)F)nc3n2)c(C)c1

OUT:
[6.70, 6.74]
